# METHOD_DESCRIPTION: BSK_3C_Proliferation: Cell Proliferation Assessment in the BioMAP Diversity Plus: 3C Assay (AID 2283006)
# STATED_CONDITIONS: primary human endothelial cells (HUVEC)
Calls of active or inactive are those of the source. How the source made its calls: active means hit-call score of the fitted dose curve at least 0.9, where 1 is the maximum; inactive means score below 0.9.
Lab note: assign the record to one of active, inactive

Cc1nccn1-c1ccc(Sc2cccc(C3(C(N)=O)CCOCC3)c2)cc1	active
Cn1c(=O)c2[nH]cnc2n(C)c1=O	inactive
FC(F)C(F)(F)COCC1CO1 (stereo not drawn)	inactive

Record lookup: outcome of this test for "FC(F)(F)COC(OCC(F)(F)F)OCC(F)(F)F" ?
inactive

Record lookup: outcome of this test for "CCc1ccc(O)c(C(C)(C)C)c1" ?
active

Record lookup: outcome of this test for "O=C(NO)C1(NS(=O)(=O)c2ccc(Oc3ccc(F)cc3)cc2)CCOCC1" ?
inactive

Record lookup: outcome of this test for "NNC(=O)c1ccncc1" ?
inactive

Record lookup: outcome of this test for "OCc1ccccc1" ?
inactive

Record lookup: outcome of this test for "CCCCCCOC(=O)CC(CC(=O)OCCCCCC)(OC(=O)CCC)C(=O)OCCCCCC" ?
inactive

Record lookup: outcome of this test for "CCCCCCCCCC" ?
active

Record lookup: outcome of this test for "CC(=O)c1ccccc1" ?
inactive

Record lookup: outcome of this test for "CCc1cccc(CC)c1N" ?
inactive

Record lookup: outcome of this test for "CCCCCCCCCCCCCCCCOS(=O)(=O)O" ?
inactive

----------
# TEST_TARGET: Nuclear receptor subfamily 4 group A member 2 (Homo sapiens)
# METHOD_DESCRIPTION: ATG_NURR1_TRANS: Attagene TRANS-FACTORIAL HepG2 Assay for human Nuclear Receptor Related Protein 1 (NURR1) (AID 2282985)
# STATED_CONDITIONS: HepG2 Attagene TRANS reporter, mRNA readout
Results filed as inconclusive are left out. The source made the active and inactive calls. The calls were made as follows: active = hit-call score of the fitted dose curve at least 0.9, where 1 is the maximum; inconclusive = response in the unintended direction; inactive = score below 0.9.
Lab note: assign the record to one of yes (1) (active), no (0) (inactive)

NC(N)=O	no (0)

Record lookup: outcome of this test for "C=CN1CCCC1=O" ?
no (0)

Record lookup: outcome of this test for CCCCC(CC)C(=O)OCCOCCOCCOC(=O)C(CC)CCCC (centres undefined) ?
no (0)

Record lookup: outcome of this test for "C[C@@H](Oc1ccc(CNC(=O)c2cccnc2Oc2ccc3c(c2)OCO3)c(F)c1)C(=O)O" ?
no (0)

Record lookup: outcome of this test for "CC(C)C(=O)Nc1ccc([N+](=O)[O-])c(C(F)(F)F)c1" ?
yes (1)

Record lookup: outcome of this test for "Cc1ccc(S(=O)(=O)NC(=O)NN2CCCCCC2)cc1" ?
no (0)

Record lookup: outcome of this test for "NC(=O)NN=Cc1ccc([N+](=O)[O-])o1" ?
no (0)

Record lookup: outcome of this test for "CCCCCCOC(=O)CC(CC(=O)OCCCCCC)(OC(=O)CCC)C(=O)OCCCCCC" ?
no (0)

Record lookup: outcome of this test for "CNC(C)=O" ?
no (0)

----------
# Read-out: Interferon-gamma inducible Protein 10 (IP10), CXCL10 (gene 3627)
# METHOD_DESCRIPTION: BSK_KF3CT_IP10: BioMAP Diversity Plus: KF3CT Assay for Interferon-gamma inducible Protein 10 (IP10) Biomarker Activity (AID 2283068)
# STATED_CONDITIONS: primary human keratinocytes with fibroblasts; actives raise or lower the signal
Calls of active or inactive are those of the source. The calls were made as follows: active = hit-call score of the fitted dose curve at least 0.9, where 1 is the maximum; inactive = score below 0.9.
Lab note: assign the record to one of t = active, f = inactive

Completed entries (count: 3):
Cc1ncc([C@@H](CCCCCCc2ccc3c(n2)NCCC3)CC(=O)O)cn1	f
CCCOc1ccc(S(=O)(=O)N2CCN(CC)CC2)cc1-c1nc2c(CC)n(Cc3ccccn3)nc2c(=O)[nH]1	f
O=C(Cl)C(F)(F)C(F)(F)C(F)(F)C(=O)Cl	f

Alright, here's another molecule for you.
Record lookup: outcome of this test for "NC(=O)N(O)[C@@H]1COc2cc(OCc3ccccc3)ccc21" ?
f
